tested on: Vero; test: Cytotoxicity against African green monkey Vero cells after 48 hrs by SRB assay; type: cell-based; conditions: chlorocebus sabaeus, vero, 48 h
Entry flag: 1 if TGI reaches 40 µM; -1 if it does not.

COc1ccc2[nH]cc(C(=O)/C(C#N)=C/C=C(\Cl)c3cc(OC)c(OC)c(OC)c3)c2c1: -1
COc1cc(/C(Cl)=C/C=C(\C#N)C(=O)c2c[nH]c3ccccc23)cc(OC)c1OC: -1
COc1ccc(/C(Cl)=C/C=C(\C#N)C(=O)c2c[nH]c3ccc(Br)cc23)cc1OC: -1
COc1cc(/C(Cl)=C/C=C(\C#N)C(=O)c2c(C)[nH]c3ccccc23)cc(OC)c1OC: 1

Challenge: Determine whether this molecule has TGI no lower than 40 µM: COc1cc(/C(Cl)=C/C=C(\C#N)C(=O)c2c[nH]c3ccc(Br)cc23)cc(OC)c1OC
Response given: -1

src = ChEMBL document CHEMBL4004879
